Where do the numbers come from? From patent US11827628B2.

test system: Primary human T-cells; experiment: Primary Human T-Cell Proliferation Assay Stimulated with IL-2 (CellTiter-Glo); format: cell-based; conditions: Homo sapiens, T-cell, primary human T-cells stimulated with IL-2, proliferation; read-out: IC50, Example 42
Reported pIC50 values follow for various compounds
A value of pIC50 is the negative decimal logarithm of a concentration given in moles per litre.

- compound.structure: "C#CCOc1ccc(Nc2nc(Nc3ccc(C)c(S(N)(=O)=O)c3)ncc2F)cc1"
  experimental.result: 6.74
- compound.structure: "NS(=O)(=O)c1cccc(Nc2ncc(F)c(Nc3ccc(-c4cnco4)cc3)n2)c1"
  experimental.result: 6.94
- compound.structure: "Cc1ccc(Nc2ncc(F)c(Nc3ccc4c(c3)N(CC#N)C(=O)CO4)n2)cc1S(N)(=O)=O"
  experimental.result: 6.65
- compound.structure: "COc1ccc(Nc2nc(Nc3ccc(Cl)c(S(N)(=O)=O)c3)ncc2F)nc1N"
  experimental.result: 5.06
- compound.structure: "COc1c(C)cc(Nc2ncc(F)c(N[C@H]3[C@@H](C(N)=O)[C@@H]4C=C[C@H]3C4)n2)cc1S(N)(=O)=O"
  experimental.result: 6.03
- compound.structure: "C#CCOC(=O)NCc1ccc(Nc2nc(Nc3cccc(S(N)(=O)=O)c3)ncc2F)cc1"
  experimental.result: 6.46
- compound.structure: "Cc1ccc(Nc2ncc(F)c(Nc3ccc4c(c3)N(CC#N)C(=O)CS4)n2)cc1S(N)(=O)=O"
  experimental.result: 6.33

Switching to the query record.
// COc1ccc(Nc2nc(Nc3cc(C)c(Cl)c(S(N)(=O)=O)c3)ncc2F)cc1Cl : pIC50 value = 6.61
